Please respond with reported fluorescence lifetime for every item in the list.
# assay-notes: solvent given as SMILES
# assay-setup: in C1CCOC1
Numbers only, in ns.

Take a look at these entries with their results.
molecule	fluorescence lifetime [ns]
CC1=[N+]2C(=C(c3ccc(C(=C(c4ccccc4)c4ccccc4)c4ccccc4)cc3)c3ccc(C)n3[B-]2(F)F)C=C1	1.13
O=C(O)c1ccc2cc3cc(C(=O)O)ccc3cc2c1	12.3
N#Cc1ccc(C2=CC3=c4cc(-c5ccc(C#N)cc5)c5nc(C(F)(F)C(F)(F)C(F)(F)F)nc6c(-c7ccc(C#N)cc7)cc(c4c65)C4=CC(c5ccc(C#N)cc5)=C5N=C(C(F)(F)C(F)(F)C(F)(F)F)N=C2C5C43)cc1 (stereo not drawn)	2.8
CCOc1cc2c(cc1/C=C/C1=CC(=C(C#N)C#N)CC(C)(C)C1)c1ccccc1n2CC	4.47

Would you mind listing fluorescence lifetime for each of the following molecules?
1. c1ccc(-c2ccc(-c3ccc(N(c4ccccc4)c4ccccc4)cc3)c3nsnc23)cc1
2. CC1=N/C(=C\c2ccc(C#N)c(N(C)C)c2)C(=O)N1C
3. COc1ccc(C2=C3C(C)=CC(C)=[N+]3[B-](F)(F)n3c(/C=C/c4ccc(N(C)C)cc4)cc(C)c32)cc1
4. CCC1(CC)c2cc(Br)ccc2-c2c1c1c(c3c2C(CC)(CC)c2cc(-c4cccs4)ccc2-3)C(CC)(CC)c2cc(Br)ccc2-1
5. CCCCCCCCCCOc1ccc(C#Cc2ccc(C#Cc3ccc(OCCCCCCCCCC)c(OCCCCCCCCCC)c3)c3nc4c5ccccc5c5ccccc5c4nc23)cc1OCCCCCCCCCC

**Result**
1: 7.95; 2: 6.8; 3: 3; 4: 0.92; 5: 8.24

Can you give me fluorescence lifetime for all of these, one by one?
1. CC1=[N+]2C(=C(c3ccc(C(=C(c4ccccc4)c4ccccc4)c4ccccc4)cc3)c3ccc(/C=C/c4ccc(C(=C(c5ccccc5)c5ccccc5)c5ccccc5)cc4)n3[B-]2(F)F)C=C1
2. CN(C)c1ccc(C2=Nc3scc(-c4ccccc4)[n+]3[B-](F)(F)O2)cc1

**Result**
1. 3.5
2. 2.06

Okay, here is my list. What is fluorescence lifetime for each of these?
1. NS(=O)(=O)c1ccc(N2N=C(c3ccc(O)cc3)CC2c2ccccc2)cc1 (stereo not drawn)
2. CCN(CC)c1ccc(-c2nc3c(c4c2-c2ccccc2CC4)-c2ccccc2CC3)cc1
3. O=Cc1ccc(C2=C3C=c4c(oc5ccccc45)=[N+]3[B-](F)(F)n3c2cc2c4ccccc4oc23)cc1
4. COc1ccc(-c2cc(C)nc(-c3ccc(-n4c5ccccc5c5ccccc54)cc3)n2)cc1
5. CCCCN1C(=O)c2cc(Oc3ccc(C(C)(C)C)cc3)c3c4c(Oc5ccc(C(C)(C)C)cc5)cc5c(=O)n6c(c7cc(Oc8ccc(C(C)(C)C)cc8)c(c8c(Oc9ccc(C(C)(C)C)cc9)cc(c2c38)C1=O)c4c57)=Cc1cccc[n+]1[B-]6(F)F
6. Cc1cc(-c2ccc(-n3c4ccccc4c4ccccc43)cc2)nc(-c2ccc(-c3ccccc3)cc2)n1
7. CCCCCCCCCCCCCCCCOc1cc(C#Cc2ccc3ccccc3c2-c2c(C#Cc3cc(OCCCCCCCCCCCCCCCC)c(C#Cc4ccc(C=C(C#N)C#N)cc4)cc3OCCCCCCCCCCCCCCCC)ccc3ccccc23)c(OCCCCCCCCCCCCCCCC)cc1C#Cc1ccc(C=C(C#N)C#N)cc1

**Result**
[2.31, 1.06, 2.09, 2.56, 3.79, 4.02, 1.25]

Fill in fluorescence lifetime for each of the 4 molecules listed.
1. COc1ccc2c(=O)c3c([nH]c2c1)-c1ccccc1NC3(C)C
2. CCOC(=O)C1=CN(Cc2ccccc2)C=C(C(=O)OCC)C1
3. CN(C)c1ccc(/C=C/C=C2\CC/C(=C\c3ccc(N(C)C)cc3)C2=O)cc1
4. c1ccc(/C(=C(\c2ccccc2)c2cc(-c3ccc(-c4ccccc4)cc3)ccc2-c2ccc(-c3ccccc3)cc2)c2cc(-c3ccc(-c4ccccc4)cc3)ccc2-c2ccc(-c3ccccc3)cc2)cc1

**Result**
[8.25, 25.6, 0.42, 8.2]
